# System: MDA-MB-231
# Test Protocol: Antimigratory activity in human MDA-MB-231 cells after 24 hrs by wound healing assay
# Measurement Conditions: MDA-MB-231, 24 h
pIC50: −log10 of the molar value.
Measured Endpoint: pIC50

[[record]]
molecule = "CC1=CC[C@H]2[C@H](CC[C@]2(C)O)C(C)(C)[C@@H]1CC[C@H]1[C@]2(C)CC[C@H](OC(=O)CCC(=O)O)C(C)(C)O[C@H]2CC[C@@]1(C)O"
bound_type = "="
observed_measurement = 4.74

[[record]]
molecule = "CC1(C)CC[C@](C)(O)[C@H]2C[C@H](O)[C@]3(C)O[C@]3(CC[C@H]3[C@]4(C)CC[C@H](O)C(C)(C)O[C@H]4CC[C@@]3(C)O)[C@H]21"
bound_type = "<"
observed_measurement = 4.30

[[record]]
molecule = "C[C@H]1C(=O)C[C@H]2[C@H](CC[C@]2(C)O)C(C)(C)[C@@H]1CC[C@H]1[C@]2(C)CC[C@H](O)C(C)(C)O[C@H]2CC[C@@]1(C)O"
bound_type = "="
observed_measurement = 4.32

[[record]]
molecule = "CC1(C)O[C@H]2CC[C@@](C)(O)[C@@H](CC[C@@H]3C(C=O)=CC[C@H]4[C@H](CC[C@]4(C)O)C3(C)C)[C@]2(C)CCC1=O"
bound_type = "="
observed_measurement = 4.37

[[record]]
molecule = "CC1=C(CC[C@H]2[C@]3(C)CC[C@H](O)C(C)(C)O[C@H]3CC[C@@]2(C)O)[C@](C)(C/C=C/C(C)(C)OO)[C@H](O)CC1"
bound_type = "<"
observed_measurement = 4.30

[[record]]
molecule = "CC1=CC[C@H]2[C@H](CC[C@]2(C)O)C(C)(C)[C@@H]1CC[C@H]1[C@]2(C)CC[C@H](OC(=O)NCc3ccccc3)C(C)(C)O[C@H]2CC[C@@]1(C)O"
bound_type = "="
observed_measurement = 4.86

[[record]]
molecule = "CC1=CC[C@H]2[C@H](CC[C@]2(C)O)C(C)(C)[C@@H]1CC[C@H]1[C@]2(C)CC[C@H](OC(=O)c3ccc([N+](=O)[O-])o3)C(C)(C)O[C@H]2CC[C@@]1(C)O"
bound_type = "="
observed_measurement = 5.46

[[record]]
molecule = "CC(=O)O[C@H]1CC[C@]2(C)[C@H](CC[C@@](C)(O)[C@H]2CC[C@@H]2C(C)=CC[C@H]3[C@H](CC[C@]3(C)OC(C)=O)C2(C)C)OC1(C)C"
bound_type = "="
observed_measurement = 4.69

[[record]]
molecule = "CC1=CC[C@H]2[C@H](CC[C@]2(C)O)C(C)(C)[C@@H]1CC[C@H]1[C@]2(C)CC[C@H](OC(=O)c3ccccc3C(F)(F)F)C(C)(C)O[C@H]2CC[C@@]1(C)O"
bound_type = "="
observed_measurement = 4.46

[[record]]
molecule = "CC1=CC[C@H]2[C@H](CC[C@]2(C)O)C(C)(C)[C@@H]1CC[C@H]1[C@]2(C)CC/C(=N/OC(=O)c3ccccc3)C(C)(C)O[C@H]2CC[C@@]1(C)O"
bound_type = "="
observed_measurement = 4.55

[[record]]
molecule = "CC1=CC[C@H]2[C@H](CC[C@]2(C)O)C(C)(C)[C@@H]1CC[C@H]1[C@]2(C)CC/C(=N/OCc3ccccc3)C(C)(C)O[C@H]2CC[C@@]1(C)O"
bound_type = "="
observed_measurement = 4.50


###

# System: MCF7
# Test Protocol: cells
# Measurement Conditions: Homo sapiens, MCF7, 72 h
Measured Endpoint: IC50

[[record]]
compound = "CC1(C)O[C@H]2CC[C@@](C)(O)[C@@H](CC[C@@H]3C(C=O)=CC[C@H]4[C@H](CC[C@]4(C)O)C3(C)C)[C@]2(C)CCC1=O"
measured_endpoint = "IC50"
observed_measurement = "> 50 µM"

[[record]]
compound = "CC1=CC[C@H]2[C@H](CC[C@]2(C)O)C(C)(C)[C@@H]1CC[C@H]1[C@]2(C)CC[C@H](OC(=O)c3ccc(C(F)(F)F)cc3)C(C)(C)O[C@H]2CC[C@@]1(C)O"
measured_endpoint = "IC50"
observed_measurement = "23.4 µM"

[[record]]
compound = "C[C@@H]1CC[C@H]2[C@@H](/C1=C/C[C@H]1[C@]3(C)CCC(=O)C(C)(C)O[C@H]3CC[C@@]1(C)O)C(C)(C)CC[C@]2(C)O"
measured_endpoint = "IC50"
observed_measurement = "> 50 µM"

[[record]]
compound = "CC(=O)O[C@H]1CC[C@]2(C)[C@H](CC[C@@](C)(O)[C@H]2CC[C@@H]2C(C)=CC[C@H]3[C@H](CC[C@]3(C)O)C2(C)C)OC1(C)C"
measured_endpoint = "IC50"
observed_measurement = "47.9 µM"

[[record]]
compound = "CC1=CC[C@H]2[C@H](CC[C@]2(C)O)C(C)(C)[C@@H]1CC[C@H]1[C@]2(C)CC[C@H](OC(=O)c3ccccc3C(F)(F)F)C(C)(C)O[C@H]2CC[C@@]1(C)O"
measured_endpoint = "IC50"
observed_measurement = "19.2 µM"

[[record]]
compound = "CC1=CC[C@H]2[C@@H]1CC=C(C)[C@@H](CCC1=C(C)CC[C@@H]3OC(C)(C)[C@@H](O)CC[C@@]13C)C2(C)C"
measured_endpoint = "IC50"
observed_measurement = "> 50 µM"

[[record]]
compound = "CC1=CC[C@H]2[C@@H]1CC=C(C)[C@@H](CC[C@H]1[C@]3(C)CC[C@H](OCc4ccccc4)C(C)(C)O[C@H]3CC[C@@]1(C)O)C2(C)C"
measured_endpoint = "IC50"
observed_measurement = "> 50 µM"

[[record]]
compound = "CC1=CC[C@H]2[C@H](CC[C@]2(C)O)C(C)(C)[C@@H]1CC[C@H]1[C@]2(C)CC[C@H](OC(=O)c3ccccc3)C(C)(C)O[C@H]2CC[C@@]1(C)O"
measured_endpoint = "IC50"
observed_measurement = "21 µM"

[[record]]
compound = "CC1(C)O[C@H]2CC[C@@](C)(O)[C@@H](CC[C@@H]3C(CO)=CC[C@H]4[C@H](CC[C@]4(C)O)C3(C)C)[C@]2(C)CC[C@@H]1O"
measured_endpoint = "IC50"
observed_measurement = "> 50 µM"

[[record]]
compound = "CC1(C)CC[C@](C)(O)[C@H]2C[C@H](O)[C@]3(C)O[C@]3(CC[C@H]3[C@]4(C)CC[C@H](O)C(C)(C)O[C@H]4CC[C@@]3(C)O)[C@H]21"
measured_endpoint = "IC50"
observed_measurement = "> 50 µM"

[[record]]
compound = "CC1=CC[C@H]2[C@H](CC[C@]2(C)O)C(C)(C)[C@@H]1CC[C@H]1[C@]2(C)CC[C@H](OC(=O)c3ccc(C(F)(F)F)c(F)c3)C(C)(C)O[C@H]2CC[C@@]1(C)O"
measured_endpoint = "IC50"
observed_measurement = "> 50 µM"

[[record]]
compound = "CC1=CC[C@H]2[C@H](CC[C@]2(C)O)C(C)(C)[C@@H]1CC[C@H]1[C@]2(C)CC[C@H](OC(=O)c3cccc([N+](=O)[O-])c3)C(C)(C)O[C@H]2CC[C@@]1(C)O"
measured_endpoint = "IC50"
observed_measurement = "36 µM"

[[record]]
compound = "CC1=CC[C@H]2[C@@H]([C@@H]1CC[C@H]1[C@]3(C)CC[C@H](O)C(C)(C)O[C@H]3CC[C@@]1(C)O)C(C)(C)CC[C@]2(C)O"
measured_endpoint = "IC50"
observed_measurement = "> 50 µM"

[[record]]
compound = "CC1=CC[C@H]2[C@H](CC[C@]2(C)O)C(C)(C)[C@@H]1CC[C@H]1[C@]2(C)CC[C@H](OC(=O)c3ccc(C(F)(F)F)cc3F)C(C)(C)O[C@H]2CC[C@@]1(C)O"
measured_endpoint = "IC50"
observed_measurement = "> 50 µM"

[[record]]
compound = "CC1=CC[C@H]2[C@@H]1CC=C(C)[C@@H](CC[C@H]1[C@]3(C)CC[C@H](OC(=O)c4ccncc4)C(C)(C)O[C@H]3CC[C@@]1(C)O)C2(C)C"
measured_endpoint = "IC50"
observed_measurement = "> 50 µM"

[[record]]
compound = "C[C@H]1C(=O)C[C@@H]2[C@@](C)(O)CC[C@]2(O)C(C)(C)[C@@H]1CC[C@H]1[C@]2(C)CCC(=O)C(C)(C)O[C@H]2CC[C@@]1(C)O"
measured_endpoint = "IC50"
observed_measurement = "> 50 µM"

[[record]]
compound = "CC1=CC[C@H]2[C@H](CC[C@]2(C)O)C(C)(C)[C@@H]1CC[C@H]1[C@]2(C)CC[C@H](OC(=O)CCC(=O)O)C(C)(C)O[C@H]2CC[C@@]1(C)O"
measured_endpoint = "IC50"
observed_measurement = "> 50 µM"

[[record]]
compound = "CC1=CC[C@H]2[C@H](CC[C@]2(C)O)C(C)(C)[C@@H]1CC[C@H]1[C@]2(C)CC/C(=N/OC(=O)c3ccccc3)C(C)(C)O[C@H]2CC[C@@]1(C)O"
measured_endpoint = "IC50"
observed_measurement = "25.6 µM"

[[record]]
compound = "CC1=CC[C@H]2[C@H](CC[C@]2(C)O)C(C)(C)[C@@H]1CC[C@H]1[C@]2(C)CC/C(=N/O)C(C)(C)O[C@H]2CC[C@@]1(C)O"
measured_endpoint = "IC50"
observed_measurement = "46.8 µM"

[[record]]
compound = "CC1=C(CC[C@H]2[C@]3(C)CC[C@H](O)C(C)(C)O[C@H]3CC[C@@]2(C)O)[C@@H]2[C@H](CC1=O)[C@@](C)(O)CCC2(C)C"
measured_endpoint = "IC50"
observed_measurement = "> 50 µM"

[[record]]
compound = "CC1=CCC2C(CC[C@@]2(C)O)C(C)(C)C1CC[C@@H]1[C@@]2(C)CC[C@@H](O)C(C)(C)O[C@@H]2CC[C@]1(C)O (stereo partly specified)"
measured_endpoint = "IC50"
observed_measurement = "44.5 µM"

